B1: glmS ribozyme (parent)
chain: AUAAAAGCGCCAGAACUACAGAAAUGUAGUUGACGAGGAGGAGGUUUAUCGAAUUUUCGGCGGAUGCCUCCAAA

Variants of: B1
METHOD: self-cleavage kobs at 640 uM GlcN6P; higher = faster cleavage; RNA array
TEST_PARAMETERS: with glucosamine-6-phosphate
This sample holds only a part of the variants without activity.
OBSERVATION_TYPE: self-cleavage kobs at 640 uM GlcN6P

Example variants with recorded self-cleavage kobs at 640 uM GlcN6P:
| VARIANT_IDENTIFIER | self-cleavage kobs at 640 uM GlcN6P |
| --- | --- |
| G40C C70A | 0.000105 s⁻¹ |
| C16A U55G | 0.000304 s⁻¹ |
| G13U A15G G51C | < 1e-05 s⁻¹ |
| G41A U47A | 0.000573 s⁻¹ |

Requested field: self-cleavage kobs at 640 uM GlcN6P. Item: C10G C58U
< 1e-05 s⁻¹

Requested field: self-cleavage kobs at 640 uM GlcN6P. Item: C11U U31G
0.000818 s⁻¹

Requested field: self-cleavage kobs at 640 uM GlcN6P. Item: G9C A15C G32U G40C G66C
< 1e-05 s⁻¹

Requested field: self-cleavage kobs at 640 uM GlcN6P. Item: A39U A64U
2.64e-05 s⁻¹

Requested field: self-cleavage kobs at 640 uM GlcN6P. Item: A33U C50U G62C
< 1e-05 s⁻¹

Requested field: self-cleavage kobs at 640 uM GlcN6P. Item: A6C C34U
< 1e-05 s⁻¹
